# measured-on: Influenza virus A/New Caledonia/20/1999 (H1N1) (Influenza A virus A/New Caledonia/20/1999 (H1N1))
# measurement-protocol: ELISA on coated viral particles
I'd appreciate it if you could supply Binding activity (absorbance at 492 nm) values for the items below.
One number for each entry.

1) Group 55 representative clone F083-305, Fab-cp3-type antibody (Fab, V domains shown) VH: EVQLVESGAEVKKPGSSVKVSCKASGSIFSNYAISWVRQAPGQGLEWMGGIVPMFGTTRFAQKFQGRVTITADESRSTAYMELNNLISEDTAVYYCARAPLIYNWYFDLWGRGTLVTVSS VL: EIVLTQSPSFVSASVGDRVSITCRASQGISSWLAWYQQKPGKAPRLLIYGASNLQSGVPSRFSGSGSGTDYTLTINSLQPEDFATYYCQQARTFPVTFGQGTKLEIK | 3.07

Query: I'd like to know its Binding activity (absorbance at 492 nm). The binder in question is Group 2 representative clone F082-220, Fab-cp3-type antibody (Fab, V domains shown) VH: QVQLVQSGAEVKKPGSSVKVSCKASGGIFRSNAVSWVRQAPGQGLEWMGGIIAIFGTPKYAQKFQGRVTITADESTSTVYMELSGLRYEDTAVYYCARGPNYYESYFDYWGQGTLVTVSS VL: DIVMTQSPPSLSASVGDRVTITCRASQGISNYLAWYQQKPGKAPKLLIFGASTLHSGVSSRFSGSGSGPDFTLTISSLQPEDAATYYCQKYHSAPLTFGGGTKVEMK
Result: 3.37
